Give inhibition for every item shown.
system.tested: Vascular endothelial growth factor receptor 2 (Homo sapiens, UniProt P35968)
Sequence (P35968 whole entry): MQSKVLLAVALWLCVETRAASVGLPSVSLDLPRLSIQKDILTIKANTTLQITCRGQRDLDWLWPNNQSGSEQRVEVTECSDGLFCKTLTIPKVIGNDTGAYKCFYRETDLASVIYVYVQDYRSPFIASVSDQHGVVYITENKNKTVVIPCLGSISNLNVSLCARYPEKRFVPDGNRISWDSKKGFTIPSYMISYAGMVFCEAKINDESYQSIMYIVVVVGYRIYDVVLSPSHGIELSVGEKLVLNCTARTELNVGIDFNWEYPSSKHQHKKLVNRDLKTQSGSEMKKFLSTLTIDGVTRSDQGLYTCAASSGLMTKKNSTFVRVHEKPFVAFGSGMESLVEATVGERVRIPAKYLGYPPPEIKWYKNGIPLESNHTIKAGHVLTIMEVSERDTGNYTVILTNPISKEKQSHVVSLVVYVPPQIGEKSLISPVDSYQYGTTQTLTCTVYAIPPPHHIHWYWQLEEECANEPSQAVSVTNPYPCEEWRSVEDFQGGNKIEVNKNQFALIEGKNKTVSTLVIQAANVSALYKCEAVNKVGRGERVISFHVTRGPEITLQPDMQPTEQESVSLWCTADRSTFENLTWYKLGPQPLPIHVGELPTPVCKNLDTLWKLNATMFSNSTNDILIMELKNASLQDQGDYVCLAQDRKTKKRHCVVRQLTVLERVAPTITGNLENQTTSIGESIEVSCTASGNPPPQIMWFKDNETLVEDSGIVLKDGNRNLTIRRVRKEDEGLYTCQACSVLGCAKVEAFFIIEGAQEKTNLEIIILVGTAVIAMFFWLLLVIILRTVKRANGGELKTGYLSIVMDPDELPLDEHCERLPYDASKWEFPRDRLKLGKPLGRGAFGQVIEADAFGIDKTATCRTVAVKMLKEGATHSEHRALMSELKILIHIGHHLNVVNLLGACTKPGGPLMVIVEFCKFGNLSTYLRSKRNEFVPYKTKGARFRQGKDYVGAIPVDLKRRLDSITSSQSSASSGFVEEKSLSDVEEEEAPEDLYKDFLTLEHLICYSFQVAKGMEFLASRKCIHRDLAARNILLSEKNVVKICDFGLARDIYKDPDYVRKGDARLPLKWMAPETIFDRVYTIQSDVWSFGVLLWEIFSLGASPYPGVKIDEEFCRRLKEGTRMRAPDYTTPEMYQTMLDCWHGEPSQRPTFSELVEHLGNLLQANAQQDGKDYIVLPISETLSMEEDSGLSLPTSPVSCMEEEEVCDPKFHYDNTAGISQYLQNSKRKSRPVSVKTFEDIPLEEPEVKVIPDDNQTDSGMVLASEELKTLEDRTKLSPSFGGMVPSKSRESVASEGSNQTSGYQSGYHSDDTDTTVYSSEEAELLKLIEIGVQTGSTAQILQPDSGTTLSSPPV
procedure.text: Inhibition of human VEGFR2 at 1 uM by enzymatic radiometric assay
Answer format reminder: number followed by unit.

Dear colleague, I am looking for the recorded inhibition of the following molecule: CN(C)C(=O)c1cc2cnc(Nc3ccc(NC(=O)C4(C(=O)Nc5ccc(F)cc5)CC4)cc3F)nc2n1C1CCCC1
33%

# iterate: CN(C)C(=O)c1cc2cnc(Nc3ccc(NC(=O)C4(C(=O)Nc5cccc(F)c5)CC4)cc3)nc2n1C1CCCC1
7%

Okay, and CN(C)C(=O)c1cc2cnc(Nc3ccc(NC(=O)C4(C(=O)Nc5ccc(Cl)c(C(F)(F)F)c5)CC4)cc3)nc2n1C1CCCC1 ?
4%

Please answer likewise for COC(=O)c1ccc(NC(=O)C2(C(=O)Nc3ccc(Nc4ncc5cc(C(=O)N(C)C)n(C6CCCC6)c5n4)cc3)CC2)cc1
2%

Now give it for Cc1cccc(NC(=O)C2(C(=O)Nc3ccc(Nc4ncc5cc(C(=O)N(C)C)n(C6CCCC6)c5n4)cc3)CC2)c1 too.
5%

Moving on to CN(C)C(=O)c1cc2cnc(Nc3ccc(NC(=O)C4(C(=O)Nc5cccc(Br)c5)CC4)cc3)nc2n1C1CCCC1
6%

One more molecule: COC(=O)c1cccc(NC(=O)C2(C(=O)Nc3ccc(Nc4ncc5cc(C(=O)N(C)C)n(C6CCCC6)c5n4)cc3)CC2)c1
-7%

Next record, please: CN(C)C(=O)c1cc2cnc(Nc3ccc(NC(=O)C4(C(=O)Nc5ccccc5)CC4)cc3)nc2n1C1CCCC1
8%

Also, CN(C)C(=O)c1cc2cnc(Nc3ccc(NC(=O)C4(C(=O)Nc5ccc(Cl)cc5)CC4)cc3)nc2n1C1CCCC1 please.
5%

Can you check CN(C)C(=O)c1cc2cnc(Nc3ccc(NC(=O)C4(C(=O)Nc5cccc(C(F)(F)F)c5)CC4)cc3)nc2n1C1CCCC1 next?
-10%
